target: Acetylcholinesterase (Rattus norvegicus)
parameter.measured: Ki
The number alone won't do; follow it with the unit.

In plain terms, C/C=C1\[C@H]2C=C(C)C[C@]1(N)c1ccc(=O)[nH]c1C2 has a documented Ki of 24 nM

====

Molecular target: Acetylcholinesterase (Rattus norvegicus, UniProt P37136)
Sequence (P37136 whole entry): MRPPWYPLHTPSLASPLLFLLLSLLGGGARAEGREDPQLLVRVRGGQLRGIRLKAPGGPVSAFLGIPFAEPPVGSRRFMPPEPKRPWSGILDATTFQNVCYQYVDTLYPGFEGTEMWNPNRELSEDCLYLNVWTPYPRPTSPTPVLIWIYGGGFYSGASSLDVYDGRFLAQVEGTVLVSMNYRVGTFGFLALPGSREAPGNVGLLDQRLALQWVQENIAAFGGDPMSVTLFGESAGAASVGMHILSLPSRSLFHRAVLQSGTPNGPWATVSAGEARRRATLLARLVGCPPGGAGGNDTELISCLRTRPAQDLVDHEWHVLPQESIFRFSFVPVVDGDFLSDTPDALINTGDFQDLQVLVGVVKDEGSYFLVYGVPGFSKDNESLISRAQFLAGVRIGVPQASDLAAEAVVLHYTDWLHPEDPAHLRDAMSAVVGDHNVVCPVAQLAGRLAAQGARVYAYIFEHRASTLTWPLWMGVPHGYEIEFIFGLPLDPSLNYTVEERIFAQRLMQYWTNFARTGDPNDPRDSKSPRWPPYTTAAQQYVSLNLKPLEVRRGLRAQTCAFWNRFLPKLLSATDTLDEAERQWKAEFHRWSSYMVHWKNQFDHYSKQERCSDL
parameter.measured: IC50 (µM)
Write the answer as a number in µM, unit excluded.

Here C/C=C1\C2C=C(C)CC1c1ccc(O)nc1C2 (stereo not drawn) was tested on Acetylcholinesterase (Rattus norvegicus, UniProt P37136), and its IC50 came to 12.8

Reported IC50 (Acetylcholinesterase (Rattus norvegicus, UniProt P37136)) for entry C/C=C1/C2C=C(C)CC1c1ccc(=O)[nH]c1C2 (stereo not drawn) is 55.5

====

target: Acetylcholinesterase (Rattus norvegicus, UniProt P37136); assay: Compound was tested for its ability to inhibit acetylcholinesterase (AChE) in rat brain; assay type: tissue-based
parameter.measured: pKi
As a rule, pKi stands for the negative log10 of the concentration, concentration in M.

1. C/C=C1/C2C=C(C)CC1c1ccc(=O)[nH]c1C2 (stereo not drawn) :: 4.91

Query C/C=C1\C2C=C(C)CC1c1ccc(O)nc1C2 (stereo not drawn) yields pKi of 5.70
